biological target: human SIRT1 (Homo sapiens, UniProt Q96EB6); construct: host or cells: Escherichia coli M15; experiment: SIRT-Glo luminogenic enzymatic inhibitory assay (inhibition rate and IC50); assay type: biochemical; conditions: final Sirtuin 1 concentration 30 nM (compounds marked *); n = 4; read-out: IC50
reported-metric: IC50 (µM)
Give just the numeric value; µM need not be written.

Q: Look up human SIRT1 (Homo sapiens, UniProt Q96EB6) data: IC50 of O=C1NC(=O)c2ccccc2/C1=C\NNC(=O)C12CC3CC(CC(C3)C1)C2 , then report it.
Result: 13

---

Biological target: human SIRT1 (Homo sapiens, UniProt Q96EB6)
Construct: host or cells: Escherichia coli M15
Sequence (Q96EB6 with tags, fused parts or gaps): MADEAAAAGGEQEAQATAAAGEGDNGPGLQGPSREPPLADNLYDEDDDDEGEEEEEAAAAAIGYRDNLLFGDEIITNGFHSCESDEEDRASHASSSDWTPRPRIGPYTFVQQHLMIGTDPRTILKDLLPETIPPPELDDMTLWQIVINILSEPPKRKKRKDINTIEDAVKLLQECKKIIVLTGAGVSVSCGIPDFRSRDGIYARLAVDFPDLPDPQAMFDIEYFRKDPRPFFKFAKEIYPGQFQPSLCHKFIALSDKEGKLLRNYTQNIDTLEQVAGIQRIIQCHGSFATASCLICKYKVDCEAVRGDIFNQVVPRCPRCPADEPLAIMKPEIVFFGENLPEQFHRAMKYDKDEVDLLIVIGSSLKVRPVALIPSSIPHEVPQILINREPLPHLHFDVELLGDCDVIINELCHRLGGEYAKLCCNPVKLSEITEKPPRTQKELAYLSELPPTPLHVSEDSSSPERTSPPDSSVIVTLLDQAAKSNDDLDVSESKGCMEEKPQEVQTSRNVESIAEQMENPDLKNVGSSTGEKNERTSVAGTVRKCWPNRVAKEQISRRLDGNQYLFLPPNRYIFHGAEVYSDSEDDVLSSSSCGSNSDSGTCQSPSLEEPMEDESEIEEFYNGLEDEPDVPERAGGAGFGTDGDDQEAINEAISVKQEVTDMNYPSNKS
Test: SIRT-Glo luminogenic enzymatic inhibitory assay (inhibition rate and IC50)
Format: biochemical
Details: final Sirtuin 1 concentration 20 nM; n = 4; read-out: IC50
reported-metric: pIC50
Quick note: pIC50 values are minus log10 of concentrations in mol/L.

Some compounds with known pIC50 results, for comparison:
1. Cc1ccc(C(=O)Nc2nc3ccc(NS(=O)(=O)c4ccc5c(c4)CCC(=O)N5)cc3s2)s1: 4.82
2. COc1ccc(NC(=O)CSc2nnc(Nc3ccc(SC(F)F)cc3)s2)cc1OC: 5.11
3. O=C1/C(=C\c2cc(Br)cc(Br)c2O)CC/C1=C\c1cc(Br)cc(Br)c1O: 5.39

Q: Note pIC50 for the compound shown: Cc1nc(-c2ccc(CCNC(=O)c3ccc(NC(=O)c4cccs4)cc3)s2)cs1
Result: 4.92

Q: Note pIC50 for the compound shown: NCc1nc2c(cnn2-c2ccccc2)c(=O)[nH]1
Result: 5.12

Where do the numbers come from? From paper PMC6925144.
